TARGET: UniProt Q12809
Sequence (Q12809 whole entry): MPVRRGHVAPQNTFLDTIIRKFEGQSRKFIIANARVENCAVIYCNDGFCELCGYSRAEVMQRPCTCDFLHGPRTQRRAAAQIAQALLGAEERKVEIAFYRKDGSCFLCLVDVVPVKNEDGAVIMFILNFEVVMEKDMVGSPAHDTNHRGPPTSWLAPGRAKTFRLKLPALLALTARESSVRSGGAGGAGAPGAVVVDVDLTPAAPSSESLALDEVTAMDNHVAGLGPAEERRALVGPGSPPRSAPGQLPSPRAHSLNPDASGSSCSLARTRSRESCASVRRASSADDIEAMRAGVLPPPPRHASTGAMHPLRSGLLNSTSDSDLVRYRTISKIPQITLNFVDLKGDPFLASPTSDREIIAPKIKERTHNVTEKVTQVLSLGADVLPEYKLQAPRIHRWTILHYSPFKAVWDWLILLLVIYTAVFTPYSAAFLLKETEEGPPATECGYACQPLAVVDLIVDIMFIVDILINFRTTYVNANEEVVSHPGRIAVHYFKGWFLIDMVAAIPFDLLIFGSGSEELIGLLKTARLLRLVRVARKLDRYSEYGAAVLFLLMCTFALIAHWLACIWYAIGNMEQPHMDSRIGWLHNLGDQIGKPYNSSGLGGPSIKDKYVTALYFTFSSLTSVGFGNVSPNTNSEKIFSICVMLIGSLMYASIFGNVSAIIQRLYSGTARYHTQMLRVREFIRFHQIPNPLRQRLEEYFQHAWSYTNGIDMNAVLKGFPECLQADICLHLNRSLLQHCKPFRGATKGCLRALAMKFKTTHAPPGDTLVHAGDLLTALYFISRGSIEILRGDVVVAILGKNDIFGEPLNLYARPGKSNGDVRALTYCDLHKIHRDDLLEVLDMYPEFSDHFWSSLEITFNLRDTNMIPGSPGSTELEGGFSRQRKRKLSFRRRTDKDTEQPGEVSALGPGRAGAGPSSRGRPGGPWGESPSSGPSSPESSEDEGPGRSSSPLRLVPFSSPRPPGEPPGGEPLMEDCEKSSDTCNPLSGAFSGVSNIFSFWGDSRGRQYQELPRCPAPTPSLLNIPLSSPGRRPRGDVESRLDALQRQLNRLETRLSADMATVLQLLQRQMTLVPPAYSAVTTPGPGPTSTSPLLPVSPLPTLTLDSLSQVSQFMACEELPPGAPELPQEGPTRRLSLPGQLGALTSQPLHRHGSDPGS
Quick list: IC50 per entry.

Task: Determine reported IC50 for [2H]C([2H])([2H])NC(=O)c1nnc(NC(=O)C2CC2)cc1Nc1cccc(-c2cc(P(=O)(C3CC3)C3CC3)n(C)n2)c1OC ; test system: UniProt Q12809.
Result: > 30 µM

Task: Determine reported IC50 for CCC(=O)c1cnc(NC(=O)C2CC2)cc1Nc1cccc(-c2cc(P(C)(C)=O)n(C)n2)c1OC ; test system: UniProt Q12809.
Result: > 30 µM

Task: Determine reported IC50 for [2H]C([2H])([2H])n1nc(-c2cccc(Nc3cc(NC(=O)C4CC4)ncc3C(=O)CC)c2OC)cc1P(C)(C)=O ; test system: UniProt Q12809.
Result: > 30 µM

Task: Determine reported IC50 for CCC(=O)c1cnc(NC(=O)C2CC2)cc1Nc1cccc(-c2cc(P(=O)(C3CC3)C3CC3)n(C)n2)c1OC ; test system: UniProt Q12809.
Result: > 30 µM
